- STUDY_TARGET: P2X7 (UniProt Q99572)
- Sequence (Q99572 1-595): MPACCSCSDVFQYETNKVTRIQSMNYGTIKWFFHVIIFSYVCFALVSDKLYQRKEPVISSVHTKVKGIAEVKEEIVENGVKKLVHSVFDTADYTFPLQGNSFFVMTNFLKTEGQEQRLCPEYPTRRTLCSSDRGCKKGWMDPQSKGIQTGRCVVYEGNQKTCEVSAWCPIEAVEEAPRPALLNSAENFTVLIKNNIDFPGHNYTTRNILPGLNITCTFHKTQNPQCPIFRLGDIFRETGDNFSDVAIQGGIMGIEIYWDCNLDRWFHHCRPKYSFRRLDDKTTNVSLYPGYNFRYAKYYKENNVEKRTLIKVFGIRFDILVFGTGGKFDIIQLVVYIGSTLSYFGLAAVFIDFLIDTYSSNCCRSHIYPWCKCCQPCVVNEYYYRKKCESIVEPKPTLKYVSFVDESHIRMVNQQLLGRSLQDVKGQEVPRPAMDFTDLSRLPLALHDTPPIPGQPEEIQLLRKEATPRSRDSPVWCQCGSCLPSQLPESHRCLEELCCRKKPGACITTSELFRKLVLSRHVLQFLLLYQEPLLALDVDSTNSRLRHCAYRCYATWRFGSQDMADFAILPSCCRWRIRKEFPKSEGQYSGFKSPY
- TEST_DESCRIPTION: P2X7 activity of Table 1
- Assay type: cell-based
- EXPERIMENTAL_CONTEXT: pIC50 values for P2X7
METRIC_NAME: pIC50

>>> numeric_readout("COC[C@H](O)Cn1nccc(-c2ccc(C)c(NC(=O)C3=CN(C)C(=O)C[C@H]3c3cccc(F)c3)c2)c1=O [Compound 104]")
7.8
>>> numeric_readout("Cc1ccc(N2CCCC2)cc1NC(=O)C1=CNC(=O)C[C@H]1c1ccc(F)cc1 [Compound 46]")
7.873
>>> numeric_readout("Cc1ccc(-c2cc(C(F)(F)F)n(CCO)n2)cc1NC(=O)C1=CN(C)C(=O)C[C@H]1c1cccc(F)c1 [Compound 111]")
6.895
>>> numeric_readout("Cc1ccc(-c2ncccn2)cc1NC(=O)C1=CNC(=O)C[C@H]1c1cccc(F)c1 [Compound 97]")
7.09

Cited source: patent US8163929B2
